3F8 Ortho Proliferation Signal 1:10: recorded values
Biological target: T1, orthogonal hCD122 receptor (hoRb), hCD122 with H133D and Y134F (human, UniProt P14784 27-550)
T1 sequence: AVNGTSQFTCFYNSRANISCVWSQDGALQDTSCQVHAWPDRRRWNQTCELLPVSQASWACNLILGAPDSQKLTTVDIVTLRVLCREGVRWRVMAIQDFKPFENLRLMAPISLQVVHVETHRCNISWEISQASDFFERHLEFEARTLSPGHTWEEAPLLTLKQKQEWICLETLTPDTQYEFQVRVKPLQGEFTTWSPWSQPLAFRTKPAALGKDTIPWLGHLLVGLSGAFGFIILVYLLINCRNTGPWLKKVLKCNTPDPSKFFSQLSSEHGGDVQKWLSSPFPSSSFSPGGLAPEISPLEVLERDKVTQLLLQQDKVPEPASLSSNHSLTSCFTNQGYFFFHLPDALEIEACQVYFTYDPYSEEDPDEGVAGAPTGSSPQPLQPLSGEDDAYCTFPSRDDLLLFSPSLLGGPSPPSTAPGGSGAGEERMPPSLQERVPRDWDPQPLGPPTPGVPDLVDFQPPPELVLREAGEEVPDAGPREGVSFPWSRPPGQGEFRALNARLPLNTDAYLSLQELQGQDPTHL
Assay: cell-based or functional assay
Please respond with the number in cts/min and leave the unit unwritten.

| binder | readout type | reported result |
| --- | --- | --- |
| G27S, SQVLKA (ligand) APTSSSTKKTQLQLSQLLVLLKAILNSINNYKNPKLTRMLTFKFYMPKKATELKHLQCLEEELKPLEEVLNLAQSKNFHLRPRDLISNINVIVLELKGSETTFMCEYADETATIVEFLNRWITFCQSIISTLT | 3F8 Ortho Proliferation Signal 1:10 | 34700 |

If you can, please state the reported 3F8 Ortho Proliferation Signal 1:10 value of T3E, SQVLKA (ligand) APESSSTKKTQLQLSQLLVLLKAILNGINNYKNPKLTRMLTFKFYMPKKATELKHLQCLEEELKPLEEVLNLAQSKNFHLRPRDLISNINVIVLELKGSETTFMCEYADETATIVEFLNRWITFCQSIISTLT .
36200

The measured values listed here are drawn from patent US20210196796A1.
